For each record, write down the corresponding IC50.
System: Lewis lung carcinoma cell line
Protocol description: Cytotoxicity against mouse LLC cells harboring […] assessed as reduction in cell viability after 72 hrs by MTT assay
Type: functional, cell-based
Note: unit µM is implicit; provide only the numeric part.

Param item = OC1(c2ccc(Cl)c(C(F)(F)F)c2)CCN(CCCC=C(c2ccc(F)cc2)c2ccc(F)cc2)CC1 ; retrieve measured IC50.
11.2

Param item = OC1(c2ccc(Cl)c(C(F)(F)F)c2)CCN(CCCC(c2ccccc2)c2ccccc2)CC1 ; retrieve measured IC50.
9.2

Param item = OC1(c2ccc(Cl)c(C(F)(F)F)c2)CCN(CCCCN(c2ccc(F)cc2)c2ccc(F)cc2)CC1 ; retrieve measured IC50.
8.2

Param item = OC1(c2ccc(Cl)c(C(F)(F)F)c2)CCN(CCCC(c2ccc(F)cc2)c2ccc(F)cc2)CC1 ; retrieve measured IC50.
4.3

Param item = OC1(c2ccc(Cl)c(C(F)(F)F)c2)CCN(CCCN(c2ccc(F)cc2)c2ccc(F)cc2)CC1 ; retrieve measured IC50.
4.1

Param item = OC1(c2ccc(Cl)c(C(F)(F)F)c2)CCN(CCCCC(c2ccc(F)cc2)c2ccc(F)cc2)CC1 ; retrieve measured IC50.
4.2

---

Target under test: Alpha-1D adrenergic receptor (Homo sapiens)
Sequence (P25100 whole entry): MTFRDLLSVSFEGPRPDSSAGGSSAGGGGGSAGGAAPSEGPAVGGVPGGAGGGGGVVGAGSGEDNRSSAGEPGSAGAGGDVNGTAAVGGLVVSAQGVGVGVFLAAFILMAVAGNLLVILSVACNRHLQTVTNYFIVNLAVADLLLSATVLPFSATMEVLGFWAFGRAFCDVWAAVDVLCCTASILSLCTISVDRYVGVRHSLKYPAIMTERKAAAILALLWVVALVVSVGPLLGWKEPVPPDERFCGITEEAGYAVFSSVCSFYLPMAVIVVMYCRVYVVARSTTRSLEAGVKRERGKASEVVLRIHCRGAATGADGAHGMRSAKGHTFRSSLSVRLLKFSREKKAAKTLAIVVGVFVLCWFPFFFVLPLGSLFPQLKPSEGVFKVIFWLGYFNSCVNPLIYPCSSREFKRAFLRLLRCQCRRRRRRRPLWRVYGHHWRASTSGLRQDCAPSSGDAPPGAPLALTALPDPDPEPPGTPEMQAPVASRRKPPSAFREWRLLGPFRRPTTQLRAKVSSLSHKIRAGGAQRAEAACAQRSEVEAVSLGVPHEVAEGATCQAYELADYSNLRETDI
Endpoint name: pKi
The meaning of pKi here: minus log10 of the concentration in molar units.

Param item = OC1(c2ccc(Cl)c(C(F)(F)F)c2)CCN(CCCC(c2ccc(F)cc2)c2ccc(F)cc2)CC1 ; retrieve measured pKi.
6.22

---

Target under test: Kappa-type opioid receptor (Homo sapiens, UniProt P41145)
Sequence (P41145 whole entry): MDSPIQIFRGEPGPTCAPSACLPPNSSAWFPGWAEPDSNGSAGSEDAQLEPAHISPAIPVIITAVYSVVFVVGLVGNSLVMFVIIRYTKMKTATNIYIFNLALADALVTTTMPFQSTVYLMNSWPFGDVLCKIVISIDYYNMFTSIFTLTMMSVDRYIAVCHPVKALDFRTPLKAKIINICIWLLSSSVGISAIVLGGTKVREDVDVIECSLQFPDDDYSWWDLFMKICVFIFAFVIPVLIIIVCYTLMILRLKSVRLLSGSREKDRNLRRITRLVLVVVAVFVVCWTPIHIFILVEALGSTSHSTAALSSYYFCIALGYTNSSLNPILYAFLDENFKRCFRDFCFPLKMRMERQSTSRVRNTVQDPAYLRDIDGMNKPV
For each record, write down the corresponding pKi.
The meaning of pKi here: minus log10 of the concentration in molar units.

Param item = OC1(c2ccc(Cl)c(C(F)(F)F)c2)CCN(CCCCCc2ccc(F)cc2)CC1 ; retrieve measured pKi.
5.77

Param item = OC1(c2ccc(Cl)c(C(F)(F)F)c2)CCN(CCCN(c2ccc(F)cc2)c2ccc(F)cc2)CC1 ; retrieve measured pKi.
6.18

Param item = OC1(c2ccc(Cl)c(C(F)(F)F)c2)CCN(CCCC(c2ccccc2)c2ccccc2)CC1 ; retrieve measured pKi.
5.88

Param item = OC1(c2ccc(Cl)c(C(F)(F)F)c2)CCN(CCCCN(c2ccc(F)cc2)c2ccc(F)cc2)CC1 ; retrieve measured pKi.
5.00

Param item = OC1(c2ccc(Cl)c(C(F)(F)F)c2)CCN(CCCC=C(c2ccc(F)cc2)c2ccc(F)cc2)CC1 ; retrieve measured pKi.
5.99

Param item = COc1ccc(N(CCCCN2CCC(O)(c3ccc(Cl)c(C(F)(F)F)c3)CC2)c2ccc(OC)cc2)cc1 ; retrieve measured pKi.
5.00

Param item = OC1(c2ccc(Cl)c(C(F)(F)F)c2)CCN(CCCCC(c2ccc(F)cc2)c2ccc(F)cc2)CC1 ; retrieve measured pKi.
5.57

---

Target under test: Delta-type opioid receptor (Homo sapiens)
Sequence (P41143 whole entry): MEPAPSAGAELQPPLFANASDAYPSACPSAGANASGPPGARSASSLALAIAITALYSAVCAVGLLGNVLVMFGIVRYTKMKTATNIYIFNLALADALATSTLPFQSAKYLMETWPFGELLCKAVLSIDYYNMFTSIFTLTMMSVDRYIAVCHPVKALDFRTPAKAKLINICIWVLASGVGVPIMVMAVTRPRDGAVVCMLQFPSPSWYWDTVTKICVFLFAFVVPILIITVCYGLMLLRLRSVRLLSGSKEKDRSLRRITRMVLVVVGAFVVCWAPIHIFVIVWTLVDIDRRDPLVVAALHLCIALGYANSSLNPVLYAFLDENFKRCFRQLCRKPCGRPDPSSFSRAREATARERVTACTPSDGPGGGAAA
Protocol description: Displacement of [3H]DADLE from human DOR expressed in HEK cells by radioligand binding assay
Format: cell-based
Particulars: read-out: Ki
Endpoint name: Ki
# number then unit; no other words

Which Ki is reported with Delta-type opioid receptor (Homo sapiens) for this entry: OC1(c2ccc(Cl)c(C(F)(F)F)c2)CCN(CCCC(c2ccccc2)c2ccccc2)CC1 ?
1530 nM

Which Ki is reported with Delta-type opioid receptor (Homo sapiens) for this entry: OC1(c2ccc(Cl)c(C(F)(F)F)c2)CCN(CCCCN(c2ccc(F)cc2)c2ccc(F)cc2)CC1 ?
10000 nM

Which Ki is reported with Delta-type opioid receptor (Homo sapiens) for this entry: OC1(c2ccc(Cl)c(C(F)(F)F)c2)CCN(CCCC(c2ccc(F)cc2)c2ccc(F)cc2)CC1 ?
1710 nM

Which Ki is reported with Delta-type opioid receptor (Homo sapiens) for this entry: COc1ccc(N(CCCCN2CCC(O)(c3ccc(Cl)c(C(F)(F)F)c3)CC2)c2ccc(OC)cc2)cc1 ?
10000 nM

Which Ki is reported with Delta-type opioid receptor (Homo sapiens) for this entry: OC1(c2ccc(Cl)c(C(F)(F)F)c2)CCN(CCCCC(c2ccc(F)cc2)c2ccc(F)cc2)CC1 ?
1410 nM

Which Ki is reported with Delta-type opioid receptor (Homo sapiens) for this entry: OC1(c2ccc(Cl)c(C(F)(F)F)c2)CCN(CCCN(c2ccc(F)cc2)c2ccc(F)cc2)CC1 ?
1560 nM

---

Target under test: 5-hydroxytryptamine receptor 2C (Homo sapiens) (UniProt P28335)
Sequence (P28335 whole entry): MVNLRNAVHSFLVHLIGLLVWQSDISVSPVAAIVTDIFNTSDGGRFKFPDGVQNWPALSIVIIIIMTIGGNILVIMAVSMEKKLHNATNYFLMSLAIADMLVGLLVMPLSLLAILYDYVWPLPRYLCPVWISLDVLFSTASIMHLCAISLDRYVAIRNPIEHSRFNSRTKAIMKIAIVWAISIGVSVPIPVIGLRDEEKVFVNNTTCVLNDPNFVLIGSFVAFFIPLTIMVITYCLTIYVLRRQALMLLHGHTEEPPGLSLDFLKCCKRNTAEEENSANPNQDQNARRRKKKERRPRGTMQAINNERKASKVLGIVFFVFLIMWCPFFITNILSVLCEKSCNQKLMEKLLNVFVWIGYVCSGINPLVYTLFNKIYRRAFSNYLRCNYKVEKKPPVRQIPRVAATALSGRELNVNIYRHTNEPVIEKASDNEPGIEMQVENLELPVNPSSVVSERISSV
Protocol description: Displacement of [3H]Mesulergine from human 5-HT2C receptor expressed in HEK293FlpIN cells by radioligand binding assay relative to control
Format: cell-based
Design: concentration or dose not given beside the values
Particulars: concentration not given here
For each record, write down the corresponding inhibition.
Note: unit % is implicit; provide only the numeric part.

Param item = COc1ccc(N(CCCCN2CCC(O)(c3ccc(Cl)c(C(F)(F)F)c3)CC2)c2ccc(OC)cc2)cc1 ; retrieve measured inhibition.
72.6

Param item = OC1(c2ccc(Cl)c(C(F)(F)F)c2)CCN(CCCCC(c2ccc(F)cc2)c2ccc(F)cc2)CC1 ; retrieve measured inhibition.
89

Param item = OC1(c2ccc(Cl)c(C(F)(F)F)c2)CCN(CCCCN(c2ccc(F)cc2)c2ccc(F)cc2)CC1 ; retrieve measured inhibition.
77.5

Param item = OC1(c2ccc(Cl)c(C(F)(F)F)c2)CCN(CCCC=C(c2ccc(F)cc2)c2ccc(F)cc2)CC1 ; retrieve measured inhibition.
77.2

---

Target under test: D(3) dopamine receptor (Homo sapiens)
Sequence (P35462 whole entry): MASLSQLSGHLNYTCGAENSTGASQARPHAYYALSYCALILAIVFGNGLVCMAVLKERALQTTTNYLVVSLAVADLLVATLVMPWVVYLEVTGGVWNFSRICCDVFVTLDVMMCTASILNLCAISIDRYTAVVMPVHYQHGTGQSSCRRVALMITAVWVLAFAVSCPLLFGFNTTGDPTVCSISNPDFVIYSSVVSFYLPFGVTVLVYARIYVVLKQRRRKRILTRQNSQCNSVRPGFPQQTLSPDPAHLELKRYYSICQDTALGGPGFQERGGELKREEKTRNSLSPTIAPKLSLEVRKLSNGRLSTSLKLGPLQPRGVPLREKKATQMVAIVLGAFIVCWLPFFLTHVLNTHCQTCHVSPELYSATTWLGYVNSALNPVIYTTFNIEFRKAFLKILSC
Protocol description: Displacement of [3H]N-methylspiperone from human dopamine D3 receptor expressed in HEK293T cells by radioligand binding assay relative to control
Assay type: cell-based
Set-up: concentration or dose not given beside the values
Particulars: concentration not given here
Endpoint name: inhibition (%)
Note: unit % is implicit; provide only the numeric part.

Param item = OC1(c2ccc(Cl)c(C(F)(F)F)c2)CCN(CCCN(c2ccc(F)cc2)c2ccc(F)cc2)CC1 ; retrieve measured inhibition.
94.4

Param item = OC1(c2ccc(Cl)c(C(F)(F)F)c2)CCN(CCCCC(c2ccc(F)cc2)c2ccc(F)cc2)CC1 ; retrieve measured inhibition.
95.7

Param item = OC1(c2ccc(Cl)c(C(F)(F)F)c2)CCN(CCCCN(c2ccc(F)cc2)c2ccc(F)cc2)CC1 ; retrieve measured inhibition.
82.5

Param item = OC1(c2ccc(Cl)c(C(F)(F)F)c2)CCN(CCCC(c2ccccc2)c2ccccc2)CC1 ; retrieve measured inhibition.
97.4

---

For each record, write down the corresponding pKi.
Target under test: 5-hydroxytryptamine receptor 2B (Homo sapiens)
Sequence (P41595 whole entry): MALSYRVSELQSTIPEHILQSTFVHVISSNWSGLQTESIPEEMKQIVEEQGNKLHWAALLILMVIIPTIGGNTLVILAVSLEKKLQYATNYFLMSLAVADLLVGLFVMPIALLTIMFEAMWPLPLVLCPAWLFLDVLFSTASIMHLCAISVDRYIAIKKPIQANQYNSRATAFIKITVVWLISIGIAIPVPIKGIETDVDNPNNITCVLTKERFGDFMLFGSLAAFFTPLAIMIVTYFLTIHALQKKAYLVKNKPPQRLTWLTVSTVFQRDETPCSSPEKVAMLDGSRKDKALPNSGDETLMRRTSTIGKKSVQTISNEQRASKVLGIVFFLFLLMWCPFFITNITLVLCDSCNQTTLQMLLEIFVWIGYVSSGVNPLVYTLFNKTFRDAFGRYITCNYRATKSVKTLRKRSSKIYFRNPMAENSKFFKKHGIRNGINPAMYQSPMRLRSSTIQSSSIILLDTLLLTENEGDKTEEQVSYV
Protocol description: Displacement of [3H]LSD from human 5-HT2B receptor expressed in HEK cells by radioligand binding assay
Format: cell-based
Particulars: read-out: Ki
The meaning of pKi here: minus log10 of the concentration in molar units.

Param item = OC1(c2ccc(Cl)c(C(F)(F)F)c2)CCN(CCCCN(c2ccc(F)cc2)c2ccc(F)cc2)CC1 ; retrieve measured pKi.
6.29

Param item = OC1(c2ccc(Cl)c(C(F)(F)F)c2)CCN(CCCC=C(c2ccc(F)cc2)c2ccc(F)cc2)CC1 ; retrieve measured pKi.
5.66

Param item = COc1ccc(N(CCCCN2CCC(O)(c3ccc(Cl)c(C(F)(F)F)c3)CC2)c2ccc(OC)cc2)cc1 ; retrieve measured pKi.
6.14

---

Target under test: Kappa-type opioid receptor (Homo sapiens)
Protocol description: Displacement of [3H]U69593 from KOR (unknown origin) expressed in HEK cells by radioligand binding assay relative to control
Format: cell-based
Design: concentration or dose not given beside the values
Particulars: concentration not given here
Would you please tag the item Condition met when its inhibition is 80% or above, and Condition not met when it is below?

Check if inhibition >= 80% (inclusive). Item: OC1(c2ccc(Cl)c(C(F)(F)F)c2)CCN(CCCCN(c2ccc(F)cc2)c2ccc(F)cc2)CC1
Condition not met

Check if inhibition >= 80% (inclusive). Item: OC1(c2ccc(Cl)c(C(F)(F)F)c2)CCN(CCCC(c2ccc(F)cc2)c2ccc(F)cc2)CC1
Condition met

Check if inhibition >= 80% (inclusive). Item: OC1(c2ccc(Cl)c(C(F)(F)F)c2)CCN(CCCCC(c2ccc(F)cc2)c2ccc(F)cc2)CC1
Condition met

Check if inhibition >= 80% (inclusive). Item: OC1(c2ccc(Cl)c(C(F)(F)F)c2)CCN(CCCN(c2ccc(F)cc2)c2ccc(F)cc2)CC1
Condition not met

Check if inhibition >= 80% (inclusive). Item: OC1(c2ccc(Cl)c(C(F)(F)F)c2)CCN(CCCC(c2ccccc2)c2ccccc2)CC1
Condition met

Check if inhibition >= 80% (inclusive). Item: COc1ccc(N(CCCCN2CCC(O)(c3ccc(Cl)c(C(F)(F)F)c3)CC2)c2ccc(OC)cc2)cc1
Condition not met
